protocol.description: in vitro
condition: both, human, plasma
Starred links: 1 amine or outer side, 2 acyl side, 3 side chain; linkers in the order of their positions; H or OH if unused. Non-standard residues stand in square brackets, D forms with d. Residues, ends and D or L forms follow the SMILES beside them. X1 = CC(C)C[C@H](NC(=S)[C@H](Cc1ccc(O)cc1)N[*:1])C(=O)[*:2]; X6 = O=C([C@H](Cc1ccc(O)cc1)NC(=S)[C@H]1CCCN1[*:1])[*:2]; X2 = CC(C)C[C@H](NC(=S)[C@@H](CC(C)C)N[*:1])C(=O)[*:2]; X3 = CC(C)C[C@H](N[*:1])C(=S)N[C@H](CC(C)C)C(=O)[*:2]; X5 = CC(C)C[C@H](NC(=S)[C@H](CC(C)C)N[*:1])C(=O)[*:2]; X4 = CC(C)C[C@H](N[*:1])C(=S)N1CCC[C@@H]1C(=O)[*:2]
experimental.readout: remaining at 7 h (%)

| compound | unit.abbrev | remaining at 7 h |
| --- | --- | --- |
| CC(C)C[C@@H]1NC(=O)[C@H](Cc2ccc(O)cc2)NC(=S)[C@H]2CCCN2C(=O)[C@H](CC(C)C)NC(=O)[C@H](CC(C)C)NC(=O)[C@@H](CC(C)C)NC1=O [10d] (cyclo(LL[X6]L[dL])) | % | 63 |
| CC(C)C[C@@H]1NC(=O)[C@@H](CC(C)C)NC(=S)[C@H](CC(C)C)NC(=O)[C@H](Cc2ccc(O)cc2)NC(=O)[C@H]2CCCN2C(=O)[C@H](CC(C)C)NC1=O [10f] (cyclo(LL[dP]Y[X3])) | % | 79 |
| CC(C)C[C@@H]1NC(=O)[C@H](Cc2ccc(O)cc2)NC(=O)[C@H]2CCCN2C(=O)[C@H](CC(C)C)NC(=S)[C@H](CC(C)C)NC(=O)[C@@H](CC(C)C)NC1=O [10b] (cyclo(L[dL][X5][dP]Y)) | % | 76 |
| CC(C)C[C@@H]1NC(=O)[C@H](Cc2ccc(O)cc2)NC(=O)[C@H]2CCCN2C(=S)[C@H](CC(C)C)NC(=O)[C@H](CC(C)C)NC(=O)[C@@H](CC(C)C)NC1=O [10c] (cyclo(L[dL]L[X4]Y)) | % | 75 |
| CC(C)C[C@@H]1NC(=O)[C@H](Cc2ccc(O)cc2)NC(=O)[C@H]2CCCN2C(=O)[C@H](CC(C)C)NC(=O)[C@H](CC(C)C)NC(=S)[C@@H](CC(C)C)NC1=O [10a] (cyclo(L[dP]YL[X2])) | % | 72 |
| CC(C)C[C@@H]1NC(=O)[C@@H](CC(C)C)NC(=O)[C@H](CC(C)C)NC(=S)[C@H](Cc2ccc(O)cc2)NC(=O)[C@H]2CCCN2C(=O)[C@H](CC(C)C)NC1=O [10e] (cyclo(LL[dP][X1][dL])) | % | 76 |
| CC(C)C[C@@H]1NC(=O)[C@H](Cc2ccc(O)cc2)NC(=O)[C@H]2CCCN2C(=O)[C@H](CC(C)C)NC(=O)[C@H](CC(C)C)NC(=O)[C@@H](CC(C)C)NC1=O [compound 10, cyclo(-D-Leu^1-Leu-Leu-D-Pro-Tyr-Leu^6-)] (cyclo(LL[dP]YL[dL])) | % | 59 |
